measurementNotes: Acute toxicity test
Type: in vivo, ICR mice
settings: ICR, mouse, in vivo, po
readout: LD50 at 14 days

Which LD50 at 14 days value is on record for Cc1c(-c2ccccc2)cccc1N1C(=O)c2cc(CN[C@H](C(=O)O)C(C)O)c(OCc3cccc(C#N)c3)cc2C1=O (stereo partly shown) ? > 5000 mg/kg

---

testedTarget: PD-1/PD-L1 interaction (Homo sapiens, UniProt Q9NZQ7)
Sequence (Q9NZQ7 19-238 limits assumed): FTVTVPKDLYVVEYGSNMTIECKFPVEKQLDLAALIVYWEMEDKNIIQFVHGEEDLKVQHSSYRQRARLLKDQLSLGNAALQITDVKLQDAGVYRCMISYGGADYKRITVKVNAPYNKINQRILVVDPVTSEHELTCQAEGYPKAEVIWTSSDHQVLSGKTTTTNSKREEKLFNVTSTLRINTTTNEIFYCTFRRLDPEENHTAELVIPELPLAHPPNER
measurementNotes: TR-FRET assay of PD-1/PD-L1 interaction inhibition
readout: pIC50
Scale note: pIC50 = -log10(concentration in M).

Report pIC50 for Cc1c(-c2ccccc2)cccc1N1C(=O)c2cc(CN3CCCC[C@H]3C(=O)O)c(OCc3cccc(C#N)c3)cc2C1=O please. 6.93

Any idea what pIC50 was measured for Cc1c(-c2ccccc2)cccc1N1C(=O)c2cc(CN[C@H](C(=O)O)C(C)O)c(OCc3cccc(C#N)c3)cc2C1=O (stereo partly shown) ? 8.05

What does the record list as pIC50 for Cc1c(-c2ccccc2)cccc1N1C(=O)c2cc(CN3CC[C@@H](O)C3)c(OCc3cccc(C#N)c3)cc2C1=O ? 6.67

Record request: pIC50 value, item Cc1c(-c2ccccc2)cccc1N1C(=O)c2cc(CN3CC(C(=O)O)C3)c(OCc3cccc(C#N)c3)cc2C1=O 7.37

Quick one: pIC50 of Cc1c(-c2ccccc2)cccc1N1C(=O)c2cc(CNCCO)c(OCc3cccc(C#N)c3)cc2C1=O [P1] ? 7.34

May I ask what pIC50 has been recorded for Cc1c(-c2ccccc2)cccc1N1C(=O)c2cc(CNCCNC(=O)OC(C)(C)C)c(OCc3cccc(C#N)c3)cc2C1=O ? 6.40

What pIC50 value was documented for this compound, CC(=O)NCCNCc1cc2c(cc1OCc1cccc(C#N)c1)C(=O)N(c1cccc(-c3ccccc3)c1C)C2=O ? 7.10

Request the reported pIC50 associated with Cc1c(-c2ccccc2)cccc1N1C(=O)c2cc(CN3CCC[C@H]3CO)c(OCc3cccc(C#N)c3)cc2C1=O 6.60

Query (compound): Cc1c(-c2ccccc2)cccc1N1C(=O)c2cc(CN3CCOCC3)c(OCc3cccc(C#N)c3)cc2C1=O ; field requested: pIC50 6.13

GET /values?readout=pIC50&item= Cc1c(-c2ccccc2)cccc1N1C(=O)c2cc(CNC3CCOCC3)c(OCc3cccc(C#N)c3)cc2C1=O 7.34

# pIC50 lookup, item N#Cc1cccc(COc2cc3c(cc2CNC2CCOCC2)C(=O)N(c2cccc(-c4ccccc4)c2Cl)C3=O)c1 7.41

May I ask what pIC50 has been recorded for Cc1c(-c2ccccc2)cccc1N1C(=O)c2ccc(OCc3cccc(C#N)c3)c(CN3CCC[C@H]3C(=O)O)c2C1=O ? 5.36

What value of measured pIC50 is listed for Cc1c(-c2ccccc2)cccc1N1C(=O)c2cc(CNCC(=O)OC(C)(C)C)c(OCc3cccc(C#N)c3)cc2C1=O ? 5.94

May I ask what pIC50 has been recorded for Cc1c(-c2ccccc2)cccc1N1C(=O)c2cc(CNCCO)c(OCc3ccc(C(C)C)cc3)cc2C1=O ? 6.04

Would you mind telling me what pIC50 value was observed for N#Cc1cccc(COc2cc3c(cc2CN2CCC[C@H]2C(=O)O)C(=O)N(c2cccc(-c4ccccc4)c2F)C3=O)c1 ? 7.50
